# target-desc: MT1-MMP hemopexin domain (Homo sapiens)
# Construct: residues Cys319-Gly511 from the human gene; His6 (N); made in house; host or cells: HEK293 cells (transient, pEXPR-IBA42 vector)
# assay-protocol: Fluorescence polarisation competition binding assay
# assay-setup: human MT1-MMP, bicycle peptides; read-out: Binding Affinity Ki (h)
property: Ki (nM)
Unit nM implied. Number only.

{"columns": ["given-smiles", "Ki [nM]"],
 "data": [
  ["C#CCCC(=O)NCCC(=O)N(C)CC(=O)N(C)CC(=O)N(C)CC(=O)N(C)CC(=O)N(C)CC(=O)N[C@@H](C)C(=O)N[C@H]1CN(C)Cc2cc3cc(c2)CN(C)C[C@@H](C(N)=O)NC(=O)[C@H](C(C)(C)C)NC(=O)[C@H](CC(=O)O)NC(=O)[C@H](Cc2ccc(O)cc2)NC(=O)[C@H](Cc2ccccc2)NC(=O)[C@H](CC(=O)O)NC(=O)[C@H](CCC(=O)O)NC(=O)[C@H](CSC3)NC(=O)[C@@H](C)NC(=O)[C@H](Cc2cccc3ccccc23)NC(=O)[C@H](CCC(=O)O)NC(=O)[C@H](CC(N)=O)NC(=O)[C@@H](C)NC1=O", 3.4],
  ["C[C@H](N)C(=O)N[C@H]1CN(C)Cc2cc3cc(c2)CN(C)C[C@@H](C(N)=O)NC(=O)[C@H](C(C)(C)C)NC(=O)[C@H](CC(=O)O)NC(=O)[C@H](Cc2ccc(O)cc2)NC(=O)[C@H](Cc2ccccc2)NC(=O)[C@H](CC(=O)O)NC(=O)[C@H](CCC(=O)O)NC(=O)[C@H](CSC3)NC(=O)[C@@H](C)NC(=O)[C@H](Cc2cccc3ccccc23)NC(=O)[C@H](CCC(=O)O)NC(=O)[C@H](CC(N)=O)NC(=O)[C@@H](C)NC1=O", 4],
  ["C#CCCC(=O)N[C@@H](C)C(=O)N[C@H]1CN(C)Cc2cc3cc(c2)CN(C)C[C@@H](C(N)=O)NC(=O)[C@H](C(C)(C)C)NC(=O)[C@H](CC(=O)O)NC(=O)[C@H](Cc2ccc(O)cc2)NC(=O)[C@H](Cc2ccccc2)NC(=O)[C@H](CC(=O)O)NC(=O)[C@H](CCC(=O)O)NC(=O)[C@H](CSC3)NC(=O)[C@@H](C)NC(=O)[C@H](Cc2cccc3ccccc23)NC(=O)[C@H](CCC(=O)O)NC(=O)[C@H](CC(N)=O)NC(=O)[C@@H](C)NC1=O", 3.2]
]}

Query (compound): `CC(=O)N[C@H]1CN(C)Cc2cc3cc(c2)CN(C)C[C@@H](C(N)=O)NC(=O)[C@H](C(C)(C)C)NC(=O)[C@H](CC(=O)O)NC(=O)[C@H](Cc2ccc(O)cc2)NC(=O)[C@H](Cc2ccccc2)NC(=O)[C@H](CC(=O)O)NC(=O)[C@H](CCC(=O)O)NC(=O)[C@H](CSC3)NC(=O)[C@@H](C)NC(=O)[C@H](Cc2cccc3ccccc23)NC(=O)[C@H](CCC(=O)O)NC(=O)[C@H](CC(N)=O)NC(=O)[C@@H](C)NC1=O` ; field requested: Ki
6
